- Tested on: SN12C
- Test Method Notes: Anticancer activity against human SN12C cells assessed inhibition of cell growth after 48 hrs by CellTiter-Glo luminescent assay
- Assay type: functional, cell-based
pIC50: −log10 of the molar value.
Listing of recorded pIC50 by entry.

>  <Smiles Notation>
O=C(O)CCCc1ccc(N(CCCl)CCCl)cc1

>  <pIC50>
3.87

$$$$
>  <Smiles Notation>
COc1cc(CBr)c(B2OC(C)(C)C(C)(C)O2)c(CBr)c1

>  <pIC50>
4.73

$$$$
>  <Smiles Notation>
N[C@@H](Cc1ccc(N(CCCl)CCCl)cc1)C(=O)O

>  <pIC50>
4.15

$$$$
>  <Smiles Notation>
CC1(C)OB(c2c(CBr)cc(O)cc2CBr)OC1(C)C

>  <pIC50>
4.61

$$$$
>  <Smiles Notation>
CC1(C)OB(c2c(CBr)cccc2CBr)OC1(C)C

>  <pIC50>
4.57

$$$$

----------
- Tested on: A498
- Test Method Notes: Anticancer activity against human A498 cells assessed inhibition of cell growth after 48 hrs by CellTiter-Glo luminescent assay
- Assay type: functional, cell-based
- Experimental Parameters: A498, 48 h
Listing of recorded IC50 by entry.
Readout Kind: IC50 (µM)

>  <Smiles Notation>
CC1(C)OB(c2c(CBr)cccc2CBr)OC1(C)C

>  <Readout Units>
µM

>  <Obs Value>
33.3

$$$$
>  <Smiles Notation>
O=C(O)CCCc1ccc(N(CCCl)CCCl)cc1

>  <Readout Units>
µM

>  <Obs Value>
280

$$$$
>  <Smiles Notation>
N[C@@H](Cc1ccc(N(CCCl)CCCl)cc1)C(=O)O

>  <Readout Units>
µM

>  <Obs Value>
135

$$$$
>  <Smiles Notation>
COc1cc(CBr)c(B2OC(C)(C)C(C)(C)O2)c(CBr)c1

>  <Readout Units>
µM

>  <Obs Value>
18.1

$$$$

----------
- System: UO-31
- Test Method Notes: Anticancer activity against human UO-31 cells assessed inhibition of cell growth after 48 hrs by CellTiter-Glo luminescent assay
- Format: functional, cell-based
- Experimental Parameters: UO-31, 48 h
pIC50: −log10 of the molar value.
Readout Kind: pIC50

>  <Compound>
N[C@@H](Cc1ccc(N(CCCl)CCCl)cc1)C(=O)O [MELPHALAN]

>  <Obs Value>
4.37

$$$$
>  <Compound>
CC1(C)OB(c2c(CBr)cc(O)cc2CBr)OC1(C)C

>  <Obs Value>
4.71

$$$$
>  <Compound>
O=C(O)CCCc1ccc(N(CCCl)CCCl)cc1 [CHLORAMBUCIL]

>  <Obs Value>
4.39

$$$$
>  <Compound>
CC1(C)OB(c2c(CBr)cccc2CBr)OC1(C)C

>  <Obs Value>
4.60

$$$$
>  <Compound>
COc1cc(CBr)c(B2OC(C)(C)C(C)(C)O2)c(CBr)c1

>  <Obs Value>
4.97

$$$$

----------
- System: MDA-MB-468
- Test Method Notes: Anticancer activity against human MDA-MB-468 cells assessed inhibition of cell growth after 48 hrs by CellTiter-Glo luminescent assay
- Type: functional, cell-based
- Experimental Parameters: MDA-MB-468, 48 h
pIC50: −log10 of the molar value.

>  <Smiles Notation>
COc1cc(CBr)c(B2OC(C)(C)C(C)(C)O2)c(CBr)c1

>  <pIC50>
5.05

$$$$
>  <Smiles Notation>
CC1(C)OB(c2c(CBr)cc(O)cc2CBr)OC1(C)C

>  <pIC50>
4.96

$$$$
>  <Smiles Notation>
CC1(C)OB(c2c(CBr)cccc2CBr)OC1(C)C

>  <pIC50>
4.92

$$$$
